- Tested on: 485176-168-R4-J1-PDC spheroids with HUVEC/MSC, viability;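 note: spheroids exposed to compounds for seven days before readout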
- METHOD_SUMMARY: Anticancer human tumor 485176-168-R4-J1-PDC patient-derived pancreatic adenocarcinoma cell line growth inhibition [GQUAD]
- CONDITION_CONTEXT: second compound 0.1 µM; first compound 0.0316 µM; stronger effect = lower value
Lab note: anything with viability, T/C below 80% is marked t; values at 80% or higher are marked f.

stdin: Could you please tell me whether viability, T/C recorded for C=CCn1c(=O)c2cnc(Nc3ccc(N4CCN(C)CC4)cc3)nc2n1-c1cccc(C(C)(C)O)n1 + Cc1[nH]c2ccc(F)cc2c1-c1nc2c3cccnc3c3ncccc3c2[nH]1 is less than 80%?
stdout: f

stdin: Could you please tell me whether viability, T/C recorded for O=C(c1cc(Cc2n[nH]c(=O)c3ccccc23)ccc1F)N1CCN(C(=O)C2CC2)CC1 + Cc1[nH]c2ccc(F)cc2c1-c1nc2c3cccnc3c3ncccc3c2[nH]1 is less than 80%?
stdout: f

stdin: Could you please tell me whether viability, T/C recorded for CC(C)n1c(=O)n(C)c2cnc3cc(F)c(-c4ccc(OCCCN5CCCCC5)nc4)cc3c21 + CN(C)c1ccc(Nc2c3ccc(NC(=O)CCN4CCCC4)cc3nc3cc(NC(=O)CCN4CCCC4)ccc23)cc1 is less than 80%?
stdout: f

stdin: Could you please tell me whether viability, T/C recorded for CC(=O)O[C@H]1C(=O)[C@@]2(C)[C@H]([C@H](OC(=O)c3ccccc3)[C@]3(O)C[C@H](OC(=O)[C@H](O)[C@@H](NC(=O)c4ccccc4)c4ccccc4)C(C)=C1C3(C)C)[C@]1(OC(C)=O)CO[C@@H]1C[C@@H]2O + Cc1cnc(CNC(=O)c2c(=O)c3ccc(N4CCCN(C)CC4)nc3n3c2sc2ccccc23)cn1 is less than 80%?
stdout: t

stdin: Could you please tell me whether viability, T/C recorded for CC(=O)O[C@H]1C(=O)[C@@]2(C)[C@H]([C@H](OC(=O)c3ccccc3)[C@]3(O)C[C@H](OC(=O)[C@H](O)[C@@H](NC(=O)c4ccccc4)c4ccccc4)C(C)=C1C3(C)C)[C@]1(OC(C)=O)CO[C@@H]1C[C@@H]2O + CN(C)c1ccc(Nc2c3ccc(NC(=O)CCN4CCCC4)cc3nc3cc(NC(=O)CCN4CCCC4)ccc23)cc1 is less than 80%?
stdout: t

stdin: Could you please tell me whether viability, T/C recorded for O=C(NO)c1cnc(N2CCN(S(=O)(=O)c3ccc4ccccc4c3)CC2)nc1 + Cc1[nH]c2ccc(F)cc2c1-c1nc2c3cccnc3c3ncccc3c2[nH]1 is less than 80%?
stdout: f

stdin: Could you please tell me whether viability, T/C recorded for CC1COCCN1c1cc(-c2ccnn2C)c2ccnc(-c3ccn[nH]3)c2n1 (stereo not given) + Cc1[nH]c2ccc(F)cc2c1-c1nc2c3cccnc3c3ncccc3c2[nH]1 is less than 80%?
stdout: t

stdin: Could you please tell me whether viability, T/C recorded for CC1COCCN1c1cc(C2(O)CC3CCC(C2)O3)c2cnn(-c3ccn[nH]3)c2n1 (stereo not given) + Cc1[nH]c2ccc(F)cc2c1-c1nc2c3cccnc3c3ncccc3c2[nH]1 is less than 80%?
stdout: t

stdin: Could you please tell me whether viability, T/C recorded for Cn1ncnc1[C@H]1c2n[nH]c(=O)c3cc(F)cc(c23)N[C@@H]1c1ccc(F)cc1 + Cc1cnc(CNC(=O)c2c(=O)c3ccc(N4CCCN(C)CC4)nc3n3c2sc2ccccc23)cn1 is less than 80%?
stdout: t

stdin: Could you please tell me whether viability, T/C recorded for COc1ncnc(C2CC2)c1-c1ncc2cnn(Cc3ccc(-c4nc(C(F)(F)F)cn4C(C)C)cc3)c2n1 + Cc1[nH]c2ccc(F)cc2c1-c1nc2c3cccnc3c3ncccc3c2[nH]1 is less than 80%?
stdout: f
